# reported pEC50; entries follow
tested on: Measles morbillivirus; assay: Antiviral activity against Measles virus Alaska assessed as inhibition of viral-induced cytopathicity; type: functional, organism-based
pEC50: −log10 of the molar value.

Consider the following illustrative entries.
input: Using the record for O=C(Nc1ccc(S(=O)(=O)N2CCCC2)cc1)c1cc(C(F)(F)F)nn1Cc1ccccc1 , state its measured pEC50.
output: < 4.12

input: Using the record for O=C(Nc1ccc(S(=O)(=O)N2CCCC2)cc1)c1ccccc1C(F)(F)F , state its measured pEC50.
output: < 4.12

input: Using the record for Cn1nc(C(F)(F)F)cc1C(=O)Nc1ccc(S(=O)(=O)N2CCOCC2)cc1 , state its measured pEC50.
output: 4.37

input: Using the record for Cn1nc(C(F)(F)F)cc1C(=O)Nc1ccc(S(=O)(=O)N2CCNCC2)cc1 , state its measured pEC50.
output: 4.55

input: Using the record for Cn1nc(C(C)(C)C)cc1C(=O)Nc1ccc(S(=O)(=O)N2CCCC2)cc1 , state its measured pEC50.
output: 4.60

***
input: Using the record for Nc1ccc(C(=O)Nc2ccc(S(=O)(=O)N3CCCC3)cc2)c(Cl)c1 , state its measured pEC50.
output: < 4.12

input: Using the record for Cn1nc(C(F)(F)F)cc1COc1ccc(S(=O)(=O)N2CCCC2)cc1 , state its measured pEC50.
output: < 4.12

input: Using the record for O=C(Nc1ccc(S(=O)(=O)N2CCCC2)cc1)c1ccco1 , state its measured pEC50.
output: < 4.12

input: Using the record for O=C(Nc1ccc(S(=O)(=O)N2CCCC2)cc1)c1cccs1 , state its measured pEC50.
output: < 4.12

input: Using the record for Cn1nc(C(F)(F)F)cc1CNc1ccc(S(=O)(=O)N2CCCC2)cc1 , state its measured pEC50.
output: < 4.12

input: Using the record for O=C(Nc1ccc(S(=O)(=O)N2CCCC2)cc1)c1ccc([N+](=O)[O-])cc1Cl , state its measured pEC50.
output: < 4.12

###

# reported CC50; entries follow
assay: Cytotoxicity against Vero cells by MTT assay; assay type: cell-based; settings: chlorocebus sabaeus

Consider the following illustrative entries.
input: Using the record for O=C(Nc1ccc(S(=O)(=O)N2CCCC2)cc1)c1ccc(F)cc1 , state its measured CC50.
output: > 300 µM

input: Using the record for Cn1nc(C(F)(F)F)cc1C(=O)Nc1ccc(S(=O)(=O)N2CCNCC2)cc1 , state its measured CC50.
output: 126 µM

input: Using the record for Cn1nc(C(F)(F)F)cc1C(=O)Nc1ccc(S(=O)(=O)N2CCC[C@H]2C(=O)O)cc1 , state its measured CC50.
output: > 300 µM

input: Using the record for Cn1nc(C(F)(F)F)cc1C(=O)Nc1ccc(S(=O)(=O)N2CCCC2)cc1NC(=O)c1cc(C(F)(F)F)nn1C , state its measured CC50.
output: 13 µM

input: Using the record for Cn1nc(C(F)(F)F)cc1C(=O)Nc1ccc(S(=O)(=O)N2CCCC2)cc1N , state its measured CC50.
output: > 300 µM

input: Using the record for Cn1nc(C(F)(F)F)cc1CNc1ccc(S(=O)(=O)N2CCCC2)cc1 , state its measured CC50.
output: > 300 µM

input: Using the record for O=C(Nc1ccc(S(=O)(=O)N2CCCC2)cc1)c1nccn1-c1ccccc1C(F)(F)F , state its measured CC50.
output: > 300 µM

input: Using the record for Cn1nc(C(F)(F)F)cc1COc1ccc(S(=O)(=O)N2CCCC2)cc1 , state its measured CC50.
output: > 300 µM

With those in mind, consider the next compound.
input: Using the record for O=C(Nc1ccc(S(=O)(=O)N2CCCC2)cc1)c1ccc(C(F)(F)F)cc1 , state its measured CC50.
output: > 300 µM

###

test system: Measles morbillivirus; assay: Antiviral activity against Measles virus Alaska assessed as inhibition of viral-induced cytopathicity; assay type: functional, organism-based
pEC50: −log10 of the molar value.
# reported pEC50; entries follow

input: Fill: pEC50 (Measles morbillivirus) for this molecule Cn1nc(C(F)(F)F)cc1C(O)Cc1ccc(S(=O)(=O)N2CCCC2)cc1 (stereo not drawn)
output: 4.39

input: Fill: pEC50 (Measles morbillivirus) for this molecule Cc1nc(C(F)(F)F)ccc1C(=O)Nc1ccc(S(=O)(=O)N2CCCC2)cc1
output: < 4.12

input: Fill: pEC50 (Measles morbillivirus) for this molecule Cn1nc(C(F)(F)F)cc1C(=O)Nc1ccc(S(=O)(=O)N2CCC[C@H]2C(=O)O)cc1
output: 4.64

input: Fill: pEC50 (Measles morbillivirus) for this molecule O=C(Nc1ccc(S(=O)(=O)N2CCCC2)cc1)c1ccc(F)cc1
output: < 4.12

input: Fill: pEC50 (Measles morbillivirus) for this molecule O=C(Nc1ccc(S(=O)(=O)N2CCCC2)cc1)c1ccc(C(F)(F)F)cc1
output: 4.32

***
input: Fill: pEC50 (Measles morbillivirus) for this molecule Cn1nc(C(F)(F)F)cc1C(=O)Nc1ccc(S(=O)(=O)N2CCC[C@H]2C(=O)OCc2ccccc2)cc1
output: 4.85

input: Fill: pEC50 (Measles morbillivirus) for this molecule Cn1nc(C(F)(F)F)cc1C(=O)Cc1ccc(S(=O)(=O)N2CCCC2)cc1
output: 4.81

###

# reported pEC50; entries follow
system: Measles morbillivirus; assay: Antiviral activity against Measles virus Alaska assessed as inhibition of viral-induced cytopathicity; format: functional, organism-based
pEC50: −log10 of the molar value.

Consider the following illustrative entries.
input: Using the record for O=C(Nc1ccc(S(=O)(=O)N2CCCC2)cc1)c1ccc(C(F)(F)F)cc1[N+](=O)[O-] , state its measured pEC50.
output: < 4.12

input: Using the record for O=C(Nc1ccc(S(=O)(=O)N2CCCC2)cc1)c1nc2ccccc2s1 , state its measured pEC50.
output: < 4.12

input: Using the record for Cn1nc(C(F)(F)F)cc1C(=O)Nc1ccc(S(=O)(=O)N2CCCC2)cc1N , state its measured pEC50.
output: ≤ 4.12

input: Using the record for Cn1nc(C(F)(F)F)cc1C(=O)Nc1ccc(S(=O)(=O)N2CCCCC2)cc1 , state its measured pEC50.
output: > 5.64

input: Using the record for COc1ccc(Br)c(C(=O)Nc2ccc(S(=O)(=O)N3CCCC3)cc2)c1 , state its measured pEC50.
output: < 4.12

With those in mind, consider the next compound.
input: Using the record for Cc1cc(C(=O)Nc2ccc(S(=O)(=O)N3CCCC3)cc2)n(C)n1 , state its measured pEC50.
output: < 4.12

###

# reported EC50; entries follow
test system: Measles morbillivirus; test: Antiviral activity against Measles virus Alaska assessed as inhibition of viral-induced cytopathicity; assay type: functional, organism-based

Consider the following illustrative entries.
input: Using the record for Cn1nc(C(F)(F)F)cc1C(=O)Nc1ccc(S(=O)(=O)N2CCCC2)cc1O , state its measured EC50.
output: > 75 µM

input: Using the record for O=C(Nc1ccc(S(=O)(=O)N2CCCC2)cc1)c1nccn1-c1ccccc1C(F)(F)F , state its measured EC50.
output: 65 µM

***
input: Using the record for Cn1nc(C(F)(F)F)cc1C(=O)Nc1ccc(S(=O)(=O)N2CCCCC2C(=O)O)cc1 (stereo not given) , state its measured EC50.
output: > 75 µM

input: Using the record for O=C(Nc1ccc(S(=O)(=O)N2CCCC2)cc1)c1cc(C(F)(F)F)ccc1F , state its measured EC50.
output: ≥ 75 µM

input: Using the record for O=C(Nc1ccc(S(=O)(=O)N2CCCC2)cc1)c1cccc(C(F)(F)F)c1 , state its measured EC50.
output: > 75 µM

Source listed as ChEMBL document CHEMBL1139770.
